Readings of DC50 for the listed compounds
Biological target: IRAK4 (Homo sapiens, UniProt Q9NWZ3)
Construct: endogenous in cells; host or cells: OCI-LY10
Sequence (Q9NWZ3 whole entry): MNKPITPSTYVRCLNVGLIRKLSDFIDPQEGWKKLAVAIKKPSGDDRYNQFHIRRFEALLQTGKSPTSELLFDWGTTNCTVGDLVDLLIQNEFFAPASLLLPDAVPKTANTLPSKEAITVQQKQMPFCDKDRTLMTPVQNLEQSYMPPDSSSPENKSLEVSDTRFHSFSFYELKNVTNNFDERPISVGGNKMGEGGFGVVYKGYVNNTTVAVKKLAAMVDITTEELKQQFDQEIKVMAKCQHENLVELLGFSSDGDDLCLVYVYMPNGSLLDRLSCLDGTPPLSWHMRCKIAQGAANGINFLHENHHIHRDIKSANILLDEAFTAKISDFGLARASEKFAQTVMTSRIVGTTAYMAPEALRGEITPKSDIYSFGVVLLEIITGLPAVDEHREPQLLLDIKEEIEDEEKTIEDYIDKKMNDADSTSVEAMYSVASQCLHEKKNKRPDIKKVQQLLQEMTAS
Experiment: IRAK4 MSD Degradation in OCI-LY10
Assay type: cell-based
Conditions: OCI-LY10 cells, 24 hrs incubation, read-out: IRAK4 degradation in OCI-LY10 at 24 hrs: DC50

Compound	System Under Test	DC50
CN(CCCO[C@H]1C[C@H](Nc2cccc3c2C(=O)N(C2CCC(=O)NC2=O)C3=O)C1)C[C@H]1CC[C@H](n2cc3cc(NC(=O)c4cccc(S(F)(F)(F)(F)F)n4)c(C(C)(C)O)cc3n2)CC1 (stereo partly shown)	IRAK4 (Homo sapiens, UniProt Q9NWZ3)	50 to 100 nM
Cc1nc(C(=O)Nc2cc3cn([C@H]4CC[C@H](CN(C)[C@H]5CC[C@H](CNc6cccc7c6C(=O)N(C6CCC(=O)NC6=O)C7=O)CC5)CC4)nc3cc2C(C)(C)O)ccc1F (stereo partly shown)	IRAK4 (Homo sapiens, UniProt Q9NWZ3)	50 to 100 nM
COc1cc2nn([C@H]3CC[C@H](CN4CC5(CC(CCNc6cccc7c6C(=O)N(C6CCC(=O)NC6=O)C7=O)C5)C4)CC3)cc2cc1NC(=O)c1cccc(C(C)(F)F)n1 (mixture of isomers)	IRAK4 (Homo sapiens, UniProt Q9NWZ3)	50 to 100 nM
COc1cc2nn([C@H]3CC[C@H](CN4CCC(O[C@H]5C[C@H](Nc6cccc7c6C(=O)N(C6CCC(=O)NC6=O)C7=O)C5)CC4)CC3)cc2cc1NC(=O)c1cccc(C(C)(C)F)n1 (stereo partly shown)	IRAK4 (Homo sapiens, UniProt Q9NWZ3)	50 to 100 nM
COc1cc2nn([C@H]3CC[C@H](CN4CCC5(CC4)CC(CCNc4cccc6c4C(=O)C(C4CCC(=O)NC4=O)C6=O)C5)CC3)cc2cc1NC(=O)c1ccnc(C)n1 (stereo partly shown)	IRAK4 (Homo sapiens, UniProt Q9NWZ3)	50 to 100 nM
O=C1CCC(N2C(=O)c3cccc(NCCCOCC4CCN(C[C@H]5CC[C@H](n6cc7cc(NC(=O)c8cccc(C(F)(F)F)n8)c(C(F)F)cc7n6)CC5)CC4)c3C2=O)C(=O)N1 (stereo partly shown)	IRAK4 (Homo sapiens, UniProt Q9NWZ3)	50 to 100 nM
COc1cc2nn([C@H]3CC[C@H](CN(C)CCCO[C@H]4C[C@H](Nc5ccc6c(c5)C(=O)N(C5CCC(=O)NC5=O)C6=O)C4)CC3)cc2cc1NC(=O)c1cccc(C(F)(F)F)n1 (stereo partly shown)	IRAK4 (Homo sapiens, UniProt Q9NWZ3)	50 to 100 nM
CC(C)(O)c1cc2nn([C@H]3CC[C@H](CN4CCO[C@H](CCCNc5cccc6c5C(=O)N(C5CCC(=O)NC5=O)C6=O)C4)CC3)cc2cc1NC(=O)c1cccc(C(F)(F)F)n1 (stereo partly shown)	IRAK4 (Homo sapiens, UniProt Q9NWZ3)	< 50 nM
COc1c(NC(=O)c2cccc(C(C)(F)F)n2)cc2cn([C@H]3CC[C@H](CN4CC5(CC(CCNc6cccc7c6C(=O)N(C6CCC(=O)NC6=O)C7=O)C5)C4)CC3)nc2c1C (stereo partly shown)	IRAK4 (Homo sapiens, UniProt Q9NWZ3)	50 to 100 nM
COc1cc2nn([C@H]3CC[C@H](CN(C)C4CCC5(CC4)CC(Nc4cccc6c4C(=O)N(C4CCC(=O)NC4=O)C6=O)C5)CC3)cc2cc1NC(=O)c1cccc(C(F)(F)F)n1 (stereo partly shown)	IRAK4 (Homo sapiens, UniProt Q9NWZ3)	50 to 100 nM
COc1cc2nn([C@H]3CC[C@H](CN4CCC5(CC4)CC(Nc4cccc6c4C(=O)N(C4CCC(=O)NC4=O)C6=O)C5)CC3)cc2cc1NC(=O)c1ccc(F)c(C)n1 (stereo partly shown)	IRAK4 (Homo sapiens, UniProt Q9NWZ3)	< 50 nM
COc1cc2nn([C@H]3CC[C@H](CN4CCC(O[C@H]5CC[C@H](CNc6cccc7c6C(=O)N(C6CCC(=O)NC6=O)C7=O)CC5)CC4)CC3)cc2cc1NC(=O)c1cccc(C(F)(F)F)n1 (stereo partly shown)	IRAK4 (Homo sapiens, UniProt Q9NWZ3)	50 to 100 nM
CC1(C)OC(c2cccc(C(F)(F)F)n2)=Nc2cc3cn([C@H]4CC[C@H](CN5CCC6(CC5)CC(Nc5cccc7c5C(=O)N(C5CCC(=O)NC5=O)C7=O)C6)CC4)nc3cc21 (stereo partly shown)	IRAK4 (Homo sapiens, UniProt Q9NWZ3)	50 to 100 nM
